This collection of values is drawn from BindingDB's records for patent US20250122166.

Entries with their measured IC50, system Protein cereblon (Homo sapiens, UniProt Q96SW2):

compound	tested_target	IC50
O=C1CCC(N2Cc3c(CNC(=O)c4ccc(Cl)cc4Cl)cccc3C2=O)C(=O)N1 (stereo not drawn) [US20250122166, Compound 28]	Protein cereblon (Homo sapiens, UniProt Q96SW2)	< 1000 nM
O=C1CCC(N2Cc3c(CNC(=O)c4ccc(Cl)c(C(F)(F)F)c4)cccc3C2=O)C(=O)N1 (stereo not drawn) [US20250122166, Compound 21]	Protein cereblon (Homo sapiens, UniProt Q96SW2)	< 1000 nM
O=C1CCC(N2Cc3c(CNC(=O)c4ccc(Br)cc4)cccc3C2=O)C(=O)N1 (stereo not drawn) [US20250122166, Compound 18]	Protein cereblon (Homo sapiens, UniProt Q96SW2)	< 1000 nM
